Recorded values, source ChEMBL document CHEMBL3045551.

test system: Tetranychus urticae; assay: Acaricidal activity against Tetranychus urticae (two-spotted spider mite) assessed as mite mortality at 50 ppm relative to untreated control; type: functional
quantity: mortality at 50 ppm (%)
Kindly answer with a numeric value in %, unit omitted.

# annotated cases, reported mortality at 50 ppm shown
compound	unit label	mortality at 50 ppm
CCC1(C(=O)Nc2nnc(C(F)(F)F)s2)CC1(Cl)Cl (configuration not stated)	%	100
CCCC1(C(=O)Nc2nnc(C(F)(F)F)s2)CC1(Cl)Cl (configuration not stated)	%	80
CC1(C(=O)Nc2nnc(C(F)(F)C(F)(F)F)s2)CC1(Cl)Cl (configuration not stated)	%	100
CC1(C(=O)Nc2nnc(C(F)(F)F)s2)CC1(Br)Br (configuration not stated)	%	30
CC1(C(=O)Nc2nnc(C(F)(F)C(F)(F)C(F)(F)F)s2)CC1(Cl)Cl (configuration not stated)	%	100
CC1(C(=O)Nc2nnc(C(F)(F)F)s2)CC1(Cl)Cl (configuration not stated)	%	100

Would you kindly look at the next entry?
Query string: I have this compound here, CC(C)C1(C(=O)Nc2nnc(C(F)(F)F)s2)CC1(Cl)Cl (configuration not stated) , and I need its recorded mortality at 50 ppm.
Result string: 30
